The measurements presented in this section are drawn from patent US20140249135A1.

TARGET_SYSTEM: Pim2 kinase (Homo sapiens)
PROTOCOL_NOTES: Pim2 ATP depletion assay
Format: biochemical
CONDITION_INFO: read-out: PIM2 IC50
pIC50: −log10 of the molar value.
ASSAY_ENDPOINT: pIC50

Please review the entries below; each comes with its answer.
{"columns": ["COMPOUND", "pIC50"],
 "data": [
  ["NC(=O)c1ccnc(-c2ccc(N)c(C(=O)Nc3cnccc3N3CCC[C@H](N)C3)n2)c1 [Example 704]", "> 6.00"],
  ["Nc1ccc(-c2cccc(Cl)n2)nc1C(=O)Nc1cnccc1N1CCC[C@H](N)C1 [Example 710]", "> 6.00"],
  ["Nc1ncc(Br)nc1C(=O)Nc1cnccc1N1CCCC(N(Cc2ccccc2)Cc2ccccc2)C1 (centres unmarked) [Example 599]", "5.00 to 6.00"],
  ["COc1ccccc1-c1ncc(N)c(C(=O)Nc2cnccc2N2CCC[C@H](N)C2)n1 [Example 551]", "> 6.00"]
]}

# input Please give the measured pIC50 for this compound: Nc1ccc(-c2c(F)cccc2F)nc1C(=O)Nc1cnccc1N1CCC[C@H](O)C1 [Example 653]
# output > 6.00

# input Entry Cc1cc(-c2ccncc2NC(=O)c2nc(-c3cc(C(=O)NC(C)C)ccc3F)ccc2N)nc(N)n1 [Example 563] please
# output > 6.00

# input Entry Nc1ccc(-c2ccccc2F)nc1C(=O)Nc1cnccc1-c1ccncc1Cl [Example 615] please
# output > 6.00

# input Entry Nc1ccc(-c2ccccc2F)nc1C(=O)Nc1cnccc1-c1cnc(N)c(C(F)(F)F)c1 [Example 603] please
# output > 6.00

* * *

TARGET_SYSTEM: Pim2 kinase (Homo sapiens, UniProt Q9P1W9)
Sequence (Q9P1W9 whole entry): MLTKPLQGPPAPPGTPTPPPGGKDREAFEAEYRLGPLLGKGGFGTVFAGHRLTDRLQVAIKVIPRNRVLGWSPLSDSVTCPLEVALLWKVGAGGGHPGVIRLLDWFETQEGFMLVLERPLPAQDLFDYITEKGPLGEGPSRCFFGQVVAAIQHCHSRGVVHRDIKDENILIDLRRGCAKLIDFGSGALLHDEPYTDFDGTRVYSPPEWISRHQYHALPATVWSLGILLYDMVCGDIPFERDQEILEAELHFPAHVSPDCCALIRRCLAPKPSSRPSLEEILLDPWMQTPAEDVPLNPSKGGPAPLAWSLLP
PROTOCOL_NOTES: Pim2 ATP depletion assay;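 note: Luciferase-based luminescent readout of ATP remaining after PIM2 phosphorylates a BAD peptide, final 5 nM enzyme, 4 µM ATP, 10 µM peptide, 2.5% DMSO, run to roughly half ATP consumption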
Type: biochemical
CONDITION_INFO: read-out: IC50 (μM) PIM2
Quick reference for IC50 among some compounds

{"columns": ["COMPOUND", "IC50"],
 "data": [
  ["Nc1nc(N)c(C(=O)Nc2cnccc2N2CCCCC2)nc1Cl", "< 1 µM"]
]}

# input Please give the measured IC50 for this compound: N#Cc1ccc(N2CCCCC2)c(NC(=O)c2nccnc2N)c1
# output 1 to 10 µM

# input Entry Cc1ccc(NC(=O)c2nccnc2N)c(N2CCC(N)CC2)c1 please
# output 10 to 25 µM

# input Entry COc1ccc(F)cc1-c1ccc(N)c(C(=O)Nc2cnccc2N2CCC[C@H](N)C2)n1 please
# output < 1 µM

# input Entry Nc1ncc(-c2cccc(C(=O)N3CCOCC3)c2)nc1C(=O)Nc1ccccc1N1CCNCC1 please
# output 10 to 25 µM

# input Entry COc1ccc(N2CCC(N)CC2)c(NC(=O)c2nccnc2N)c1 please
# output 10 to 25 µM

# input Entry Nc1nccnc1C(=O)Nc1cc(F)ccc1N1CCC(N)CC1 please
# output 1 to 10 µM

# input Entry CO[C@@H]1C[C@H](N)CN(c2ccncc2NC(=O)c2nc(C3CCCCC3)ccc2N)C1 please
# output < 1 µM

# input Entry Nc1cnc(-c2ccccc2)nc1C(=O)Nc1cnccc1N1CCC[C@H](N)C1 please
# output < 1 µM

# input Entry NCCOc1ccncc1NC(=O)c1nccnc1N please
# output > 25 µM

# input Entry CCCCOc1ccc(F)c(-c2ccc(N)c(C(=O)Nc3cnccc3N3CCC[C@H](N)C3)n2)c1F please
# output < 1 µM

# input Entry Nc1nc(N)c(-c2ccccc2Cl)nc1C(=O)Nc1cnccc1N1CCCC(N)C1 (stereo not drawn) please
# output < 1 µM

# input Entry Nc1ccc(-c2c(F)cccc2F)nc1C(=O)Nc1cnccc1N1CCCCCCC1 please
# output 1 to 10 µM

* * *

Quick reference for IC50 among some compounds
TARGET_SYSTEM: KDR kinase (Homo sapiens)
Sequence (P35968 20-1356): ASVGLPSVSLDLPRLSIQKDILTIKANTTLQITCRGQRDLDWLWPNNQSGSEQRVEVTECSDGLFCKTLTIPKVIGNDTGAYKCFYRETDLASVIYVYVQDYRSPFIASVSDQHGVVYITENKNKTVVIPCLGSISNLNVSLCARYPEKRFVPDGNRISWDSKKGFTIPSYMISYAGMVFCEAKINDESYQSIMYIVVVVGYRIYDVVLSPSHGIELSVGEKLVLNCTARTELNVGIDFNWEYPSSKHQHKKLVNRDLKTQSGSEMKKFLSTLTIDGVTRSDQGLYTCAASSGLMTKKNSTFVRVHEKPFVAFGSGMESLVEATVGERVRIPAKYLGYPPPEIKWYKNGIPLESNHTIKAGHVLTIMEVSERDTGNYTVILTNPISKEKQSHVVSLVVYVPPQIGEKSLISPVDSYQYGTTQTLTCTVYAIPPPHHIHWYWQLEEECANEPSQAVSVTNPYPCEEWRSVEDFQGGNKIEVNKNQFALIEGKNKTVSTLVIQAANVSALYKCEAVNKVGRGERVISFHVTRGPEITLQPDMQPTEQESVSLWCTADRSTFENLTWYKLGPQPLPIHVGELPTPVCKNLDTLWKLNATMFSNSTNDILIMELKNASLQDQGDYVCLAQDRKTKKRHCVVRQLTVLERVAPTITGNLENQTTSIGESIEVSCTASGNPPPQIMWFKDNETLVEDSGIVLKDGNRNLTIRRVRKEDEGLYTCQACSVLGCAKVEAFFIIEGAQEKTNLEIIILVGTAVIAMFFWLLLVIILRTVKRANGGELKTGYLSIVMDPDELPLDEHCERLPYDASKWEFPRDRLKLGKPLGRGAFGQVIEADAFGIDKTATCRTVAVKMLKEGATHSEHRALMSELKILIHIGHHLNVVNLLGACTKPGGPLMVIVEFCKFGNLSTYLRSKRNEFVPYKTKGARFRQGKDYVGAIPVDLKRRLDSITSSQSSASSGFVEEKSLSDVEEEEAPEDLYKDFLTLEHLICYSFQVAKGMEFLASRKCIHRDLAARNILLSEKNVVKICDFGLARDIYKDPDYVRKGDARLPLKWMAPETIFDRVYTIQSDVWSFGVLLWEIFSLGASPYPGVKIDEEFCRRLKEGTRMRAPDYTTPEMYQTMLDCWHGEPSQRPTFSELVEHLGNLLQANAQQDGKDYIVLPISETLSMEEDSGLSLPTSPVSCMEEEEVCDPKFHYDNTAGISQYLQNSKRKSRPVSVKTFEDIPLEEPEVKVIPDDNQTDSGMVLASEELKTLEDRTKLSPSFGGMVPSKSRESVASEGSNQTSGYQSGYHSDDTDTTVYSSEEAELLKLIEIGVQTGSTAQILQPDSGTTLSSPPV
PROTOCOL_NOTES: KDR AlphaScreen assay
CONDITION_INFO: KDR IC50 (μM)

Please review the entries below; each comes with its answer.
{"columns": ["COMPOUND", "ASSAY_ENDPOINT", "READING"],
 "data": [
  ["Nc1ccc(-c2ccccc2F)nc1C(=O)Nc1cnccc1-c1ccnc(O)c1", "IC50", "1 to 10 µM"],
  ["Nc1ncc(-c2ccccc2)nc1C(=O)Nc1cc(C(=O)c2ccccc2)ccc1N1CCCC(N)C1 (centres unmarked)", "IC50", "< 1 µM"],
  ["Nc1nccnc1C(=O)Nc1cc(C(F)(F)F)ccc1N1CCNCC1", "IC50", "> 25 µM"]
]}

# input Please give the measured IC50 for this compound: Cc1cc(-c2ccncc2NC(=O)c2nc(-c3c(F)ccc(OC(C)C)c3F)ccc2N)cc(N)n1
# output 10 to 25 µM

# input Entry COc1nc(N)ncc1-c1ccc(N)c(C(=O)Nc2cnccc2N2CCC[C@H](N)C2)n1 please
# output 10 to 25 µM

# input Entry Cc1ccccc1-c1cnc(N)c(C(=O)Nc2[nH]c(=O)ncc2N2CCCC(N)C2)n1 (centres unmarked) please
# output < 1 µM

# input Entry Nc1nccnc1C(=O)Nc1ccccc1N1CCC[C@H](N)C1 please
# output 10 to 25 µM

# input Entry Nc1ncc(Br)nc1C(=O)Nc1cnccc1N1CCCCC1 please
# output 1 to 10 µM

* * *

TARGET_SYSTEM: Pim1 kinase (Homo sapiens, UniProt P11309)
Sequence (P11309 whole entry): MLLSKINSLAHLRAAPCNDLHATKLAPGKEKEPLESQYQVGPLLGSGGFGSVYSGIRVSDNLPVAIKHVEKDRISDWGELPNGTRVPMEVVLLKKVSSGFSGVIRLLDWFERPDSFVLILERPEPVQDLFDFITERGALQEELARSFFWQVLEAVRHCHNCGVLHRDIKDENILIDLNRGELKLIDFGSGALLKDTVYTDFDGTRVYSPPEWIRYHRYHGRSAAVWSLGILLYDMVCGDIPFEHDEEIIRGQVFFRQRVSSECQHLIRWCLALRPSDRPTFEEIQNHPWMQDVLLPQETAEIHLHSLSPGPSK
PROTOCOL_NOTES: Pim1 ATP depletion assay
Assay type: biochemical
CONDITION_INFO: Pim1 ATP depletion assay; read-out: IC50 (μM) PIM1
ASSAY_ENDPOINT: IC50

Please review the entries below; each comes with its answer.
{"columns": ["COMPOUND", "IC50"],
 "data": [
  ["CO[C@@H]1C[C@H](N)CN(c2ccncc2NC(=O)c2nc(-c3c(F)cccc3F)ccc2N)C1", "< 1 µM"],
  ["Nc1ncc(-c2ccccc2F)nc1C(=O)Nc1ccccc1N1CCNCC1", "< 1 µM"],
  ["Nc1nccnc1C(=O)Nc1cc(C(=O)c2ccccc2)ccc1N1CCCC(N)C1 (centres unmarked)", "1 to 10 µM"],
  ["COC1CCN(c2ccncc2NC(=O)c2nc(-c3cc(C(=O)NC(C)C)ccc3F)ccc2N)CC1N (centres unmarked)", "< 1 µM"],
  ["Nc1ncc(-c2ccccc2)nc1C(=O)Nc1cnccc1N1CCC(N)CC1", "< 1 µM"]
]}

# input Please give the measured IC50 for this compound: COc1cc(-c2ccc(N)c(C(=O)Nc3cnccc3N3CCC[C@H](N)C3)n2)cnc1N
# output < 1 µM

# input Entry COc1ccc(F)c(-c2cnc(N)c(C(=O)Nc3ccccc3N3CCC(N)CC3)n2)c1 please
# output < 1 µM

# input Entry Nc1ccc(-c2c(F)cccc2F)nc1C(=O)Nc1cnccc1N1CCCOCC1 please
# output < 1 µM

# input Entry Nc1cnc(-c2c(F)cccc2F)nc1C(=O)Nc1cnccc1N1CC[C@@H](F)[C@H](N)C1 (stereo in doubt) please
# output < 1 µM

* * *

TARGET_SYSTEM: UniProtKB Q86V86
PROTOCOL_NOTES: Pim3 ATP depletion assay
Format: biochemical
CONDITION_INFO: read-out: IC50 (μM) PIM3
ASSAY_ENDPOINT: IC50

# input Please give the measured IC50 for this compound: Nc1cnc(-c2c(F)cccc2F)nc1C(=O)Nc1cnccc1N1CCC[C@H](N)C1 [Example 270]
# output < 1 µM

# input Entry Nc1ccc(-c2c(F)ccc(OCc3ccccc3Cl)c2F)nc1C(=O)Nc1cnccc1N1CCC[C@H](N)C1 [Example 464] please
# output < 1 µM

# input Entry COc1ccc(-c2cnc(N)c(C(=O)Nc3cc(C(=O)c4ccccc4)ccc3N3CCNCC3)n2)cc1 [Example 441] please
# output 1 to 10 µM

# input Entry Nc1nccnc1C(=O)Nc1[nH]c(=O)ncc1-c1cccs1 [Example 137] please
# output < 1 µM

* * *

TARGET_SYSTEM: UniProtKB Q9P1W9
PROTOCOL_NOTES: Pim2 ATP depletion assay
Format: biochemical
CONDITION_INFO: read-out: IC50 (μM) PIM2
ASSAY_ENDPOINT: IC50

Please review the entries below; each comes with its answer.
{"columns": ["MOLECULE", "TARGET_SYSTEM", "IC50"],
 "data": [
  ["Nc1ccc(C2CCCCC2)nc1C(=O)Nc1cnccc1N1CC(N)CC(C(F)(F)F)C1 (stereo not drawn)", "UniProtKB Q9P1W9", "< 1 µM"],
  ["Nc1ncc(Br)nc1C(=O)Nc1[nH]c(=O)ncc1N1CCCC(C(F)(F)F)C1 (stereo not drawn)", "UniProtKB Q9P1W9", "< 1 µM"]
]}

# input Value wanted: IC50 (UniProtKB Q9P1W9) of entry CCCOc1ccc(F)c(-c2nc(C(=O)Nc3cnccc3N3CCC[C@H](N)C3)c(N)cc2F)c1F
# output < 1 µM

# input Entry CC1(O)CCCN(c2ccncc2NC(=O)c2nc(-c3ccccc3F)ccc2N)C1 (stereo not drawn) please
# output < 1 µM

# input Entry Cc1cscc1-c1ccc(N)c(C(=O)Nc2cnccc2N2CCC[C@H](N)C2)n1 please
# output < 1 µM

# input Entry Nc1nccnc1C(=O)Nc1cnccc1Cl please
# output > 25 µM

# input Entry Nc1cc(-c2ccncc2NC(=O)c2cccc(-c3ccccc3)n2)nc(C(F)(F)F)n1 please
# output < 1 µM

# input Entry Nc1ccc(-c2ccc(Cl)s2)nc1C(=O)Nc1cnccc1N1CCC[C@H](N)C1 please
# output < 1 µM

# input Entry Nc1ncc(Br)nc1C(=O)Nc1cnccc1N1CCCC(N)C1 (stereo not drawn) please
# output < 1 µM

# input Entry COc1ccccc1-c1nc(C(=O)Nc2cnccc2N2CCCC(N)C2)c(N)nc1N (stereo not drawn) please
# output < 1 µM
